target: NLRP3 inflammasome (Homo sapiens); construct: host or cells: THP1-Null cells (PMA-differentiated, LPS-primed, nigericin-stimulated); experiment: Evaluation of NLRP3 inflammasome inhibitory activity (inhibition of IL-1β production in LPS/Nigericin-stimulated THP1-Null cells, AlphaLISA); format: cell-based; conditions: IL-1β production in THP1-Null cells; PMA, 1 µg/mL Lipopolysaccharides 3 hours, Nigericin 7.5 µmol/L 1.5 hours; read-out: IC50
Sequence (Q96P20 whole entry): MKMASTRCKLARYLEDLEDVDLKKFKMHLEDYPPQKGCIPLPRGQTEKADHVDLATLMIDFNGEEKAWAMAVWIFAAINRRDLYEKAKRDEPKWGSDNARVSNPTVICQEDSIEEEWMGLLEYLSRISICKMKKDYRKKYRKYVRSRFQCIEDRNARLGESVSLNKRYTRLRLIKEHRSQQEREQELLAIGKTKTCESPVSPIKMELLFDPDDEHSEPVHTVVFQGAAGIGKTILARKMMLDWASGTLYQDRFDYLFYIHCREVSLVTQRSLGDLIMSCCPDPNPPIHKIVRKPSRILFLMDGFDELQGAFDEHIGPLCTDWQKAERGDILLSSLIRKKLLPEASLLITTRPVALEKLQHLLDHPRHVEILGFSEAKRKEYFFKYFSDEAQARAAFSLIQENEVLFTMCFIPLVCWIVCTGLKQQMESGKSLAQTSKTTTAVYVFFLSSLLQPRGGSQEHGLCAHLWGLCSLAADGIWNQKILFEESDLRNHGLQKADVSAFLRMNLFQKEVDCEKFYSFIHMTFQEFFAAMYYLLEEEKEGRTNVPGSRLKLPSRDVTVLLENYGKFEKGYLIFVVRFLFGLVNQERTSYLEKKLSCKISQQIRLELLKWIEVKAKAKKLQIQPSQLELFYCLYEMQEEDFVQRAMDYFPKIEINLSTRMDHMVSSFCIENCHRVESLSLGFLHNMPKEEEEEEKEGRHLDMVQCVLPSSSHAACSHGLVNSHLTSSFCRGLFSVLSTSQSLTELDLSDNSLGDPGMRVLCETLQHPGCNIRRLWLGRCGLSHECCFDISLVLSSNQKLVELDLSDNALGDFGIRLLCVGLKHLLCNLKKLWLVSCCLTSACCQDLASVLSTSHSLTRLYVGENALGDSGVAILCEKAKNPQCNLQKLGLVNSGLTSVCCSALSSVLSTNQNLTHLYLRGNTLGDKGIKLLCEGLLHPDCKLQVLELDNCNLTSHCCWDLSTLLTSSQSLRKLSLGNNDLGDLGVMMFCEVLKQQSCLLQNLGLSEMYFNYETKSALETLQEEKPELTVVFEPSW
Each record is given T if its reported IC50 is strictly below 40 nM. Records at or above 40 nM are given F.

Field: example entries. Status: answers known.
Cc1cc(C2CC2)cc(F)c1-n1cc2c(=O)[nH]c(C3(F)CCOCC3)nc2n1 [Example 110] :: T
Cc1cc(C2CC2)cc(C)c1-n1cc2c(=O)[nH]c(C(N)=O)nc2n1 [Example 203] :: F
Cc1cc(Br)cc(C)c1-n1cc2c(=O)[nH]c(C3CCOCC3)nc2n1 [Example 81] :: T
Cc1cc(Br)cc(C)c1-n1cc2c(=O)[nH]c(C3CC(F)(F)CO3)nc2n1 (racemic) [Example 189] :: F
Cc1cc(C2CC2)cc(C)c1-n1cc2c(=O)[nH]c(CO)nc2n1 [Example 105] :: T
Cc1cc(Br)cc(C)c1-n1cc2c(=O)[nH]c(C3CCOCCO3)nc2n1 (racemic) [Example 160] :: T
Cc1cc(Br)cc(C)c1-n1cc2c(=O)[nH]c(CN3CCCCC3)nc2n1 [Example 112] :: F
Cc1cc(OC(F)F)cc(C)c1-n1cc2c(=O)[nH]c(C3CC(C)OC(C)C3)nc2n1 (centres unmarked) [Example 89] :: F
COCc1nc2nn(-c3c(C)cc(C(C)(F)F)cc3C)cc2c(=O)[nH]1 [Example 200] :: F
Cc1cc(Br)cc(C)c1-n1cc2c(=O)[nH]c(CC3CC3)nc2n1 [Example 161] :: T

Exercise: Consider COCCc1nc2nn(-c3ccc(C)cc3C)cc2c(=O)[nH]1 [Example 9] . Does its IC50 lie strictly below 40 nM?
Key: F

Exercise: Hello, I'm reviewing records and need to know if IC50 of Cc1cc(C(C)(F)F)cc(C)c1-n1cc2c(=O)[nH]c(C3CC3)nc2n1 [Example 80] is below 40 nM. Could you check?
Key: T

Exercise: Dear reviewer, please state whether Cc1ccc(-n2cc3c(=O)[nH]c(C4CCO4)nc3n2)c(C)c1 (racemic) [Example 35] has IC50 strictly beneath 40 nM.
Key: F

Exercise: In the record for Cc1cc(OC(F)F)cc(C)c1-n1cc2c(=O)[nH]c(COC(F)F)nc2n1 [Example 148] , is IC50 less than 40 nM?
Key: F

Exercise: Item Cc1ccc(-n2cc3c(=O)[nH]c(CCCS(C)(=O)=O)nc3n2)c(C)c1 [Example 37] : IC50 beneath 40 nM, strictly?
Key: F

Exercise: Identify whether the compound Cc1cc(C(C)(F)F)cc(C)c1-n1cc2c(=O)[nH]c([C@H](C)O)nc2n1 (single isomer, unassigned) [Example 155] records IC50 below 40 nM.
Key: F

Exercise: Consider the compound COCc1cc(OC(F)F)cc(C)c1-n1cc2c(=O)[nH]c(C3CC3)nc2n1 [Example 76] . Is its IC50 strictly less than 40 nM?
Key: F
